- System: 786-0
- Experiment notes: NCI 60 cell-line test
- Assay type: cell-based, human
- Condition set: 786-0 (Renal Cancer); read-out: LC50 (the source's name)
Measurement label: CC50

> print(dat)
                                   compound  measured.result
1  CC1(C)C2CC[C@@]1(CS(=O)(=O)N(C1CCCCC1)C1CCCCC1)C(O)C2 (stereo partly shown)         > 100 µM

###

- Tested on: SK-MEL-5
- Experiment notes: NCI 60 cell-line test
- Assay type: cell-based, human
- Condition set: SK-MEL-5 (Melanoma); read-out: LC50 (the source's name)
Measurement label: CC50 (µM)

> print(dat)
                                   compound  experimental.target  units  measured.result
1  CC1(C)C2CC[C@@]1(CS(=O)(=O)N(C1CCCCC1)C1CCCCC1)C(O)C2 (stereo partly shown)             SK-MEL-5     µM             77.7

###

- Test system: A549/ATCC
- Experiment notes: NCI 60 cell-line test
- Format: cell-based, human
- Condition set: A549/ATCC (Non-Small Cell Lung Cancer); read-out: LC50 (the source's name)
- Description: Methodology: The NCI conducted a test of the MT103 drug against 60 human cell lines, with a minimum of five concentrations of MT103 at 10-fold dilutions. […] Following drug addition, the plates were incubated for an additional 48 h at 37° C., 5% CO2, 95% air, and 100% relative humidity. […] Bound stain was subsequently solubilized with 10 mM trizma base, and the absorbance was read on an automated plate reader at a wavelength of 515 nm. […] Percentage growth inhibition was calculated as: […]
Measurement label: CC50

> print(dat)
                                   molecule  measurement.label  measured.result
1  CC1(C)C2CC[C@@]1(CS(=O)(=O)N(C1CCCCC1)C1CCCCC1)C(O)C2 (stereo partly shown)               CC50         > 100 µM

###

- Tested on: OVCAR-8
- Experiment notes: NCI 60 cell-line test
- Type: cell-based, human
- Condition set: OVCAR-8 (Ovarian Cancer); read-out: LC50 (the source's name)
Measurement label: CC50

> print(dat)
                                   compound  measurement.label  measured.result
1  CC1(C)C2CC[C@@]1(CS(=O)(=O)N(C1CCCCC1)C1CCCCC1)C(O)C2 (stereo partly shown)               CC50         > 100 µM

###

- Test system: RXF 393
- Experiment notes: NCI 60 cell-line test
- Assay type: cell-based, human
- Condition set: RXF 393 (Renal Cancer); read-out: LC50 (the source's name)
Measurement label: CC50

> print(dat)
                                   compound  measurement.label  measured.result
1  CC1(C)C2CC[C@@]1(CS(=O)(=O)N(C1CCCCC1)C1CCCCC1)C(O)C2 (stereo partly shown) [MT103]               CC50         > 100 µM

###

- Tested on: KM12
- Experiment notes: NCI 60 cell-line test
- Type: cell-based, human
- Condition set: KM12 (Colon Cancer); read-out: LC50 (the source's name)
Measurement label: CC50

> print(dat)
                                   compound  measurement.label  measured.result
1  CC1(C)C2CC[C@@]1(CS(=O)(=O)N(C1CCCCC1)C1CCCCC1)C(O)C2 (stereo partly shown)               CC50         > 100 µM
